biological target: ADAMTS-5 recombinant protein (Homo sapiens (Human), UniProt Q9UNA0); experiment: In vitro fluorescence (FRET-peptide) enzymatic assay of ADAMTS-5 activity; assay type: biochemical; conditions: FRET peptide substrate 8 μM, 10 nM enzyme, 37° C. 3 hours
Sequence (Q9UNA0 262-622): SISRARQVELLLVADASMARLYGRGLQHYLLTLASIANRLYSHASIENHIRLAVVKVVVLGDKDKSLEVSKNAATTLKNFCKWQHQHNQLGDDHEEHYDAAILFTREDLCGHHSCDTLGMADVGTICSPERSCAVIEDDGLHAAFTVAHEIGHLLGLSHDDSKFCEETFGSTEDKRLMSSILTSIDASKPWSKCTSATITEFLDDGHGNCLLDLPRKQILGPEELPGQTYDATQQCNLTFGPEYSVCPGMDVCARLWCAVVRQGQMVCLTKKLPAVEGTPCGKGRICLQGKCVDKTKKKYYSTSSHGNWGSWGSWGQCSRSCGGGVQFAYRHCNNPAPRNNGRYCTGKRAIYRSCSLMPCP
Measure name: IC50 (nM)

[2H]C1([2H])c2cc(Cl)c(Cl)cc2C(C)N1C(=O)CC[C@@]1(C2CC2)NC(=O)NC1=O (stereo partly shown)
40

A = Cc1cc(C2(CCC(=O)N3Cc4cc(Cl)c(C(F)(F)F)cc4C3)NC(=O)NC2=O)n[nH]1 (stereo not shown)
B = C[C@@H]1c2cc(Cl)c(Cl)cc2CN1C(=O)CC[C@@]1(C2CC2)NC(=O)NC1=O
C = CC(C)C(C[C@@]1(C2CC2)NC(=O)NC1=O)C(=O)N1Cc2ccc(C(F)(F)F)cc2C1 (stereo partly shown)
Q: Returns the items ordered by IC50, from maximum to minimum. In plain terms: list the labels in the order you were asked to.
Ans: A, C, B
(A: 57 nM, C: 20 nM, B: 10 nM)

Values from patent US20240299360A1
